The entries below come with measured tissue uptake at 3 h values attached.
# METHOD_SUMMARY: in vivo
# SETUP_CONDITIONS: swiss nude, mouse, kidneys, iv
Numbered stars: 1 amine (or outer) side, 2 acyl side, 3 side chain; on linkers, the order of the positions; unused ones are H or OH. Bridge positions count the residues as written; N and C are the ends. Square brackets hold non-standard residues; d marks the D form. Peptide text beside a SMILES is read from it. * marks the point of attachment. X6 = NCCNCC(CNCCN)C(=O)NCCOCCOCCOCCOCCOCCOCCC(=O)NCCCOCCOCCOCCCN*; mXylylene = c1cc(C[*:1])cc(C[*:2])c1; Suc = O=C(CCC(=O)[*:2])[*:1]; Nle = CCCC[C@H](N)C(=O)O
# value in %ID/g; strip the unit string

Look over these answered cases.
{"COMPOUND": "CCCC[C@H](NC(=O)CCC(=O)NCCCOCCOCCOCCCNC(=O)CCOCCOCCOCCOCCOCCOCCNC(=O)C(CNCCN)CNCCN)C(=O)N[C@H]1CSCc2cccc(c2)CSC[C@@H](C(=O)O)NC(=O)[C@H](Cc2ccccc2)NC(=O)[C@H](CCC(=O)O)NC(=O)[C@H]([C@@H](C)O)NC(=O)[C@@H]2CCCN2C(=O)[C@@H]2CCCN2C1=O [3BP-4780] ({X6-Suc}-[Nle]CPPTEFC-OH; linker 2-8 via mXylylene)", "tissue uptake at 3 h, %ID/g": 6.14}
{"COMPOUND": "CCCC[C@H](NC(=O)CCOCCOCCOCCOCCOCCOCCNC(=O)C(CNCCN)CNCCN)C(=O)N[C@H]1CSCc2cncc(c2)CSCC(C(=O)O)NC(=O)[C@H](Cc2ccccc2)NC(=O)[C@H](CCC(N)=O)NC(=O)[C@H]([C@@H](C)O)NC(=O)[C@@H]2CCCN2C(=O)[C@@H]2CCCN2C1=O (stereo partly drawn)", "tissue uptake at 3 h, %ID/g": 0.62}

Shift focus to the following entry.
[in] Kindly indicate its recorded tissue uptake at 3 h. Item: CCCCNC(=O)N[C@H]1CSCc2cc(cc(CN3CCN(C(=O)C(CNCCN)CNCCN)CC3)c2)CSC[C@@H](C(=O)O)NC(=O)[C@H](Cc2ccccc2)NC(=O)[C@H](CCC(N)=O)NC(=O)[C@H]([C@@H](C)O)NC(=O)[C@@H]2CCCN2C(=O)[C@@H]2CCCN2C1=O
[out] 4.43
